Biological target: T1, Recombinant P-selectin (R&D Systems) (human, UniProt P16109 42-771)
T1 construct: extracellular domain; also called recombinant human P-selectin; recombinant truncated form of P-selectin
T1 sequence (looked up): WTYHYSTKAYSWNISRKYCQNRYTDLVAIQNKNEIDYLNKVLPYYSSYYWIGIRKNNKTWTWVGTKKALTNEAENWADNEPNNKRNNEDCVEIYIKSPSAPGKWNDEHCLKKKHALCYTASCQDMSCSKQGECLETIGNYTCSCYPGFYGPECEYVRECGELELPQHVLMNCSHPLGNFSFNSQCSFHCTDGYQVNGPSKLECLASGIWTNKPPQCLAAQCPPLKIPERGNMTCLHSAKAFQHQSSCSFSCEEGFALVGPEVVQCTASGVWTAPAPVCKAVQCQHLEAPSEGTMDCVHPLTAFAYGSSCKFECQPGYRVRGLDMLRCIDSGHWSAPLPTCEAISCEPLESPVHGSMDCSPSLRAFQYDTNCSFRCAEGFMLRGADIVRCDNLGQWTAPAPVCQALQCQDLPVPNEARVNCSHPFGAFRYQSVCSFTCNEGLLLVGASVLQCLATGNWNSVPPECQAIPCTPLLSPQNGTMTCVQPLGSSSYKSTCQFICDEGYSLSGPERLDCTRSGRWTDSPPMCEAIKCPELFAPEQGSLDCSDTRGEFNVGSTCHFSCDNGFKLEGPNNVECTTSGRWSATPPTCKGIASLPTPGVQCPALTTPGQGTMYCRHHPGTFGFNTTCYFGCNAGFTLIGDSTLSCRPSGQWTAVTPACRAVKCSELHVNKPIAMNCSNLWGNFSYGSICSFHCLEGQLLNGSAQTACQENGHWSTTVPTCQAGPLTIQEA
Assay: SPR, BIACORE 2000; antibody captured by anti-human Fcγ, recombinant P-selectin 0-50 nM injected; 1:1 Langmuir fit
property label: Ka (M⁻¹)
Write down the numeric answer in M⁻¹ and omit the unit.

Field request: Ka | item: HuMab 017 (antibody of cell line hu-Mab<P-selectin>LC 1004-017, DSM ACC2642) (antibody, V domains shown, Human monoclonal antibody; also called antibody 017) VH: QPQLVQSGAEVKKPGASVKVSCKVSGNTLTELSMHWVRQAPGKGLEWMGGFDPENGEAIYAQKFQGRVTMTADTSTDTAYMDLSSLRSEDTAVYYCATDLAGGSDFYYYGLDVWGQGTTVTVSS VL: AIQLTQSPSSLSASVGDRVTITCRASQGISSALAWYQQKPGKAPKLLIYDASSLESGVPSRFSGSGSGTDFTLTISSLQPEDFATYYCQQFNSYPYTFGQGTKLEIK
5.59e+10

Field request: Ka | item: HuMab 005 (antibody, V domains shown, Human monoclonal antibody; also called antibody 005) VH: QVQLVESGGGVVQPGRSLRLSCAASGFTFSSYGMHWVRQAPGEGLEWVAVIWYDGTFKYYADSVKGRFTISRDNSKNTLSLLMNSLRAEDTAVYYCTRGGYYGSGSSFDYYYYGMDVWGQGTTVTVSS VL: EIVLTQSPATLSLSPGERATLSCRASQSVSSYLAWYQQKPGQAPRLLIYDASNRATGIPARFSGSGSGTDFTLTISSLEPEDFAVYYCQQRSNWPPVTFGQGTRLEIK
2.91e+09

Field request: Ka | item: HuMab 001 (antibody of cell line hu-Mab<P-selectin>LC 1004-001, DSM ACC2640) (antibody, V domains shown, Human monoclonal antibody from transgenic mice; kappa light and gamma1 heavy chains by the cloning section; also called antibody 001; HuMab 1004-001) VH: EVQLVESGGGLVQPGGSLRLSCAASGFTFSSYDMHWVRQATGKGLEWVSGITTAGDTYYPGSVKGRFTISRENAKNSLYLQMNSLRAGDTAVYYCARGRISMDRGVKNNWFDPWGQGTLVTVSS VL: EIVLTQSPATLSLSPGERATLSCRASQSVSSYLAWYQQKPGQAPRLLIYDASNRATGIPARFSGSGSGTDFTLTISSLEPEDFAVYYCQQRNNWPLTFGGGTKVEIK
1.45e+09

Field request: Ka | item: HuMab 003 (antibody, V domains shown, Human monoclonal antibody; also called antibody 003; LC 1004-003) VH: QVQLVESGGGVVQPGRSLRLSCAASGFTFSSYGMHWVRQAPGEGLEWVAVIWYDGTFKYYADSVKGRFTISRDNSKNTLSLLMNSLRAEDTAVYYCTRGGYYGSGSSFDYYYYGMDVWGQGTTVTVSS VL: DIQMTQSPSSLSASVGDRVTITCRASQGISSWLAWYQQKPEKAPKSLIYAASSLQSGVPSRFSGSGSGTDFTLTISSLQPEDFATYYCQQYHSYPLTFGGGTKVEIK
2.27e+09
